# Test system: HEK-293T
# ASSAY METHOD TEXT: Multiplex assay against HEK293T
# Assay type: toxicity, cell-based
# CONDITION PARAMETERS: human, 12 h, 10 µM, compound concentration 10 uM, replicate 1
Kindly supply the reported Population Hoechst High Intensity Objects (%) values for the records listed here.
Numbers only, in %.

CN(C)C(=O)Cn1cc(-c2ccc(-c3nnc4ccccn34)cc2)cn1; 7

Could I get Population Hoechst High Intensity Objects (%) for every one of these entries?
1. CN1CCN(c2ccc(Nc3c4ccccc4nc4ccccc34)cc2)CC1.Cl.Cl.O
2. COc1cc(C(=O)N2CC[C@@H](O)[C@@H](N)C2)cc2nc(-c3cc4ccccc4n3CC3CC3)n(C)c12.Cl
3. Cc1ccc(OCC(O)C(C)NC(C)C)c2c1CCC2.Cl (stereo not given)
4. O=C(O)CCC/C=C\CC1C(O)CC(O)C1/C=C/C(O)COc1cccc(Cl)c1 (stereo not given)

output:
1
21
3
6

* * *

Kindly supply the reported Population Mitotic Cells (%) values for the records listed here.
# Test system: U2OS
# ASSAY METHOD TEXT: Multiplex assay against U2OS
# Type: toxicity, cell-based
# CONDITION PARAMETERS: human, 48 h, 1 µM, compound concentration 1 uM, replicate 2
Answers are plain numbers, in %.

Could I get Population Mitotic Cells (%) for every one of these entries?
1. O=c1nc2[nH]c3ccccc3nc-2c(=O)[nH]1
2. O=c1ccc2ccc(OCCCCN3CCN(c4cccc5sccc45)CC3)cc2[nH]1
3. CCc1nn2c(C)cc(C)nc2c1Cc1ccc(-c2nnc(C3CCNCC3)o2)cc1
4. COc1ccc2c(c1OCc1ccccc1)C[C@@H](C(=O)O)N(C(=O)C(c1ccccc1)c1ccccc1)C2
5. COCCCN1CCC(NC(=O)c2cc(Cl)c(N)c3c2OCC3)CC1 [PRUCALOPRIDE]
6. CCC(=O)OCC(=O)[C@@]1(OC(=O)CC)[C@@H](C)C[C@H]2[C@@H]3CCC4=CC(=O)C=C[C@]4(C)[C@@]3(Cl)[C@@H](O)C[C@@]21C [BECLOMETHASONE DIPROPIONATE]

output:
[23, 26, 14, 21, 13, 14]

Could I get Population Mitotic Cells (%) for every one of these entries?
1. Cc1cc(=O)n(C)c2cc(N3C(=O)CC[C@H](NS(=O)(=O)CC(C)C)[C@H]3c3ccc(Cl)cc3)ccc12
2. CN(C)C/C=C/C(=O)Nc1ccc(C(=O)N2CCCC(Nc3ncc(Cl)c(-c4c[nH]c5ccccc45)n3)C2)cc1 (stereo not drawn)

output:
[5, 3]

* * *

# System: HEK-293T
# ASSAY METHOD TEXT: Multiplex assay against HEK293T
# Assay type: toxicity, cell-based
# CONDITION PARAMETERS: human, 24 h, 1 µM, compound concentration 1 uM, replicate 2
Kindly supply the reported Population Apoptotic (%) values for the records listed here.

// below: answered compounds
Cc1c(Cc2ccc3ccccc3n2)c2cc(F)ccc2n1CC(=O)O [TIMAPIPRANT]; 53%
COc1ccc2[nH]c(I)c(CCNC(C)=O)c2c1 [IODOMELATONIN]; 44%
CN1C[C@H](C(=O)N[C@]2(C)O[C@@]3(O)[C@@H]4CCCN4C(=O)[C@H](Cc4ccccc4)N3C2=O)C[C@@H]2c3cccc4[nH]cc(c34)C[C@H]21.CS(=O)(=O)O [DIHYDROERGOTAMINE MESYLATE]; 51%
CN1CCC(C(=O)c2cccc(NC(=O)c3c(F)cc(F)cc3F)n2)CC1; 42%
COc1cc(Nc2ncc3c(n2)-c2ccc(Cl)cc2C(c2c(F)cccc2OC)=NC3)ccc1C(=O)O [ALISERTIB]; 47%

Could I get Population Apoptotic (%) for every one of these entries?
1. CC(C)(C)c1ccc(CSc2cnn(C(C)(C)C)c(=O)c2Cl)cc1 [PYRIDABEN]
2. N[C@](CC1c2ccccc2Oc2ccccc21)(C(=O)O)[C@H]1C[C@@H]1C(=O)O
3. COc1cc(C(=O)N2CC[C@@H](O)[C@@H](N)C2)cc2nc(-c3cc4ccccc4n3CC3CC3)n(C)c12.Cl

output:
1: 35%; 2: 38%; 3: 60%

Where do the numbers come from? From ChEMBL document CHEMBL5058577.
